tested on: RPMI-8226; experiment: NCI 60 cell line panel (SRB), RPMI-8226; assay type: cell-based; settings: Homo sapiens; RPMI-8226, Leukemia; single dose of 10 μM; read-out: Cell Growth Percent
So basically: is activity at 10 µM under 90%? Then true. Not under? Then false.

Record excerpt, results attached:
>  <MOLECULE>
O=C(Nc1ccc(Nc2ncnc3sc4c(c23)CCCC4)cc1)Nc1cccc(Cl)c1 [Compound 20d]

>  <TEST TARGET>
RPMI-8226

>  <GROUP LABEL>
false

$$$$
>  <MOLECULE>
CCOC(=O)c1c(C)oc2ncnc(Nc3ccc(C(=O)NCCc4ccccc4)cc3)c12 [Compound 14e]

>  <TEST TARGET>
RPMI-8226

>  <GROUP LABEL>
true

$$$$
>  <MOLECULE>
COc1cccc(NC(=O)Nc2ccc(Nc3ncnc4sc5c(c34)CCCC5)cc2)c1 [Compound 20c]

>  <TEST TARGET>
RPMI-8226

>  <GROUP LABEL>
false

$$$$
>  <MOLECULE>
O=C(Nc1ccccc1)Nc1ccc(Nc2ncnc3sc4c(c23)CCCC4)cc1 [Compound 20a]

>  <TEST TARGET>
RPMI-8226

>  <GROUP LABEL>
false

$$$$

Does O=C(Nc1ccc(Cl)cc1)Nc1ccc(Oc2ncnc3sc4c(c23)CCCC4)cc1 [Compound 21d] have activity at 10 µM strictly under 90%?
true

Next: CCOC(=O)c1c(C)oc2ncnc(Nc3ccc(NC(=O)Nc4cccc(Cl)c4)cc3)c12 [Compound 15d]
true

Next: Cc1cccc(NC(=O)Nc2ccc(Oc3ncnc4sc5c(c34)CCCC5)cc2)c1 [Compound 21b]
true

Next: COc1cccc(NC(=O)Nc2ccc(Oc3ncnc4sc5c(c34)CCCC5)cc2)c1 [Compound 21c]
true

Next: CCOC(=O)c1c(C)oc2ncnc(Nc3ccc(NC(=O)Nc4ccc(CC)cc4)cc3)c12 [Compound 15i]
false

Next: O=C(Nc1ccccc1)Nc1ccc(Oc2ncnc3sc4c(c23)CCCC4)cc1 [Compound 21a]
true

Next: CCOC(=O)c1c(C)oc2ncnc(Nc3ccc(C(=O)Nc4cccc(Cl)c4)cc3)c12 [Compound 14a]
false

====

system: UACC-62; experiment: NCI 60 cell line panel (SRB), UACC-62; type: cell-based; conditions: Homo sapiens; UACC-62, Melanoma; single dose of 10 μM; read-out: Cell Growth Percent
Here the recorded activity at 10 µM is given for each entry.
Output spec: scalar in %, unitless text.

activity at 10 µM for CCOC(=O)c1c(C)oc2ncnc(Nc3ccc(C(=O)Nc4ccc(OC)cc4)cc3)c12 [Compound 14b] ?
93.4

Next: CCOC(=O)c1c(C)oc2ncnc(Nc3ccc(C(=O)Nc4cccc(Cl)c4)cc3)c12 [Compound 14a]
67.6

Next: COc1cccc(NC(=O)Nc2ccc(Oc3ncnc4sc5c(c34)CCCC5)cc2)c1 [Compound 21c]
70.9

Next: O=C(Nc1ccccc1)Nc1ccc(Oc2ncnc3sc4c(c23)CCCC4)cc1 [Compound 21a]
66.5

====

tested on: NCI-H522; assay: NCI 60 cell line panel (SRB), NCI-H522; type: cell-based; details: Homo sapiens; NCI-H522, Non-Small Cell Lung Cancer; single dose of 10 μM; read-out: Cell Growth Percent
So basically: is activity at 10 µM under 80%? Then true. Not under? Then false.

>  <COMPOUND>
O=C(Nc1ccc(Nc2ncnc3sc4c(c23)CCCC4)cc1)Nc1cccc(Cl)c1 [Compound 20d]

>  <GROUP LABEL>
false

$$$$

Does CCOC(=O)c1c(C)oc2ncnc(Nc3ccc(C(=O)NCCc4ccccc4)cc3)c12 [Compound 14e] have activity at 10 µM strictly under 80%?
true

Next: CCOC(=O)c1c(C)oc2ncnc(Nc3ccc(NC(=O)Nc4ccc(CC)cc4)cc3)c12 [Compound 15i]
false

Next: O=C(Nc1ccccc1)Nc1ccc(Nc2ncnc3sc4c(c23)CCCC4)cc1 [Compound 20a]
false

====

molecular target: VEGFR-2 (KDR) (Homo sapiens); construct: purchased BPS Bioscience 40301; assay: In vitro VEGFR-2 tyrosine kinase activity (Kinase-Glo Plus luminescence, BPS Bioscience); type: biochemical; conditions: single dose concentration of 10 μM
Sequence (P35968 20-1356): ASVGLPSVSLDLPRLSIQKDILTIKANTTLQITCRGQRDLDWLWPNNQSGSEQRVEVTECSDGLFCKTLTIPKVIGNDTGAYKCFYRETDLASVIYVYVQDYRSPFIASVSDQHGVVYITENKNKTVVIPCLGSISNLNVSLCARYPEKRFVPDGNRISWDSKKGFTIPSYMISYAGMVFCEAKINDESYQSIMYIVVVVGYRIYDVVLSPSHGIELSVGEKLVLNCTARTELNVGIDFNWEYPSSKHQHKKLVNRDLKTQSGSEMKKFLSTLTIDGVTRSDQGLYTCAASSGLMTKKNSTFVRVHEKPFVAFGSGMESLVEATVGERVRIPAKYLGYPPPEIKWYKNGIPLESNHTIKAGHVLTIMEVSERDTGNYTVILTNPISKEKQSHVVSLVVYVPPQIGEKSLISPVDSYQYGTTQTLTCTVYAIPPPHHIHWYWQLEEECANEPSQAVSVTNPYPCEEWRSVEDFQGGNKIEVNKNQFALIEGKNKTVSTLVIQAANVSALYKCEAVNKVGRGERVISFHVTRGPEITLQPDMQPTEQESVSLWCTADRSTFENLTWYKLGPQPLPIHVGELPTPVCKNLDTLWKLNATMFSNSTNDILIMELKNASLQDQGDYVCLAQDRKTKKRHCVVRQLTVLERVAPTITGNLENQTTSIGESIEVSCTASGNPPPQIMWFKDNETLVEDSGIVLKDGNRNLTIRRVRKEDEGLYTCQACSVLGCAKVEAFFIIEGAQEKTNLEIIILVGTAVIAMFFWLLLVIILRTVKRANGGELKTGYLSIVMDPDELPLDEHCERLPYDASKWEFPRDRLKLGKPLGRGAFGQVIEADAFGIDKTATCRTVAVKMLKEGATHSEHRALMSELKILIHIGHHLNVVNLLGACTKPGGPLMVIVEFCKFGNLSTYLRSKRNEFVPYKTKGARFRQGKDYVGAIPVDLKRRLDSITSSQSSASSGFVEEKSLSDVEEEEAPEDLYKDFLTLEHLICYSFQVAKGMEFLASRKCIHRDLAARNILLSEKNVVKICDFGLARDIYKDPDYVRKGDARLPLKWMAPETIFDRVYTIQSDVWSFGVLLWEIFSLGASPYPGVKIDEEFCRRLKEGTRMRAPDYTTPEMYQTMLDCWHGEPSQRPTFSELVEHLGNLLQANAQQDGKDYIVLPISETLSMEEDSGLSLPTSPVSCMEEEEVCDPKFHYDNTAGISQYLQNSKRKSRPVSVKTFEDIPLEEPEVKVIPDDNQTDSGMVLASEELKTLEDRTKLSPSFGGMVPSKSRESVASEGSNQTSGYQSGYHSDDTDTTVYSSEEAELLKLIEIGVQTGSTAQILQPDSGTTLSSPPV
Here the recorded inhibition at 10 µM is given for each entry.
Output spec: scalar in %, unitless text.

Record excerpt, results attached:
>  <MOLECULE>
CCOC(=O)c1c(C)oc2ncnc(Oc3ccc(NC(=O)Nc4ccccc4)cc3)c12 [Compound 16a]

>  <NUMERIC READOUT>
27

$$$$
>  <MOLECULE>
CCOC(=O)c1c(C)oc2ncnc(Nc3ccc(C(=O)Nc4ccc(OC)cc4)cc3)c12 [Compound 14b]

>  <NUMERIC READOUT>
8

$$$$
>  <MOLECULE>
CCOC(=O)c1c(C)oc2ncnc(Nc3ccc(NC(=O)Nc4cccc(Br)c4)cc3)c12 [Compound 15h]

>  <NUMERIC READOUT>
45

$$$$

Lab note: next molecule to report on.
inhibition at 10 µM for CCOC(=O)c1c(C)oc2ncnc(Nc3ccc(NC(=O)Nc4ccc(Cl)cc4)cc3)c12 [Compound 15e] ?
14

====

QUANTITY NAME: melting point

Record excerpt, results attached:
>  <MOLECULE>
CCOC(=O)c1c(C)oc2ncnc(Nc3ccc(NC(=O)Nc4ccc(C)c(Cl)c4)cc3)c12 [Compound 15f]

>  <RESULT>
254 to 256 °C

$$$$
>  <MOLECULE>
CCOC(=O)c1c(C)oc2ncnc(Nc3ccc(NC(=O)Nc4ccc(Cl)cc4)cc3)c12 [Compound 15e]

>  <RESULT>
262 to 265 °C

$$$$
>  <MOLECULE>
COc1cccc(NC(=O)Nc2ccc(Nc3ncnc4sc5c(c34)CCCC5)cc2)c1 [Compound 20c]

>  <RESULT>
206 to 210 °C

$$$$
>  <MOLECULE>
O=C(Nc1ccc(Cl)cc1)Nc1ccc(Oc2ncnc3sc4c(c23)CCCC4)cc1 [Compound 21d]

>  <RESULT>
> 300 °C

$$$$
>  <MOLECULE>
CCOC(=O)c1c(C)oc2ncnc(Nc3ccc(C(=O)Nc4ccc(OC)cc4)cc3)c12 [Compound 14b]

>  <RESULT>
218 to 222 °C

$$$$
>  <MOLECULE>
CCOC(=O)c1c(C)oc2ncnc(Nc3ccc(NC(=O)c4cccc(Cl)c4)cc3)c12 [Compound 13a]

>  <RESULT>
232 to 236 °C

$$$$

melting point for CCOC(=O)c1c(C)oc2ncnc(Nc3ccc(C(=O)NCCc4ccccc4)cc3)c12 [Compound 14e] ?
176 to 180 °C

Next: CCOC(=O)c1c(C)oc2ncnc(Nc3ccc(NC(=O)Nc4cccc(Br)c4)cc3)c12 [Compound 15h]
224 to 228 °C

====

Here the recorded melting point is given for each entry.

>  <COMPOUND>
CCOC(=O)c1c(C)oc2ncnc(Nc3ccc(NC(=O)Nc4cccc(C(C)=O)c4)cc3)c12 [Compound 15g]

>  <QUANTITY NAME>
melting point

>  <RESULT>
240 to 244 °C

$$$$
>  <COMPOUND>
Cc1cccc(NC(=O)Nc2ccc(Nc3ncnc4sc5c(c34)CCCC5)cc2)c1 [Compound 20b]

>  <QUANTITY NAME>
melting point

>  <RESULT>
> 250 °C

$$$$

melting point for CCOC(=O)c1c(C)oc2ncnc(Nc3ccc(NC(=O)Nc4ccc(CC)cc4)cc3)c12 [Compound 15i] ?
242 to 246 °C

Next: O=C(Nc1ccc(Cl)cc1)Nc1ccc(Nc2ncnc3sc4c(c23)CCCC4)cc1 [Compound 20e]
> 300 °C

Next: CCOC(=O)c1c(C)oc2ncnc(Nc3ccc(C(=O)Nc4cccc(Cl)c4)cc3)c12 [Compound 14a]
226 to 230 °C

Origin of measurements: paper PMC4832243
